- tested system: Torsin-1A (Homo sapiens) (UniProt O14656)
- Sequence (O14656 whole entry, looked up): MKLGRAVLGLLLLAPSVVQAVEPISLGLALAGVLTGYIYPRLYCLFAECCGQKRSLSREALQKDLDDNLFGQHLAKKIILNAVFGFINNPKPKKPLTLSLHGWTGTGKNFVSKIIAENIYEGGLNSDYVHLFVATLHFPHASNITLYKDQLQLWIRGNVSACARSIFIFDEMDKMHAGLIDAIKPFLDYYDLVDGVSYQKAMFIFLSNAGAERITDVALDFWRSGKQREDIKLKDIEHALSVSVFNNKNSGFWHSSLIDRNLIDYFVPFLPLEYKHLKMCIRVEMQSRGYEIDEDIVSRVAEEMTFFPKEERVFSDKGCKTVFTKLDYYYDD
- method notes: small-molecule binders of mutant TOR1A in lysate, primary screen, cell lysate, small-molecule microarray, COS7 lysate, 635/667 nm fluorescence (AID 1150);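 also: score pools 667 nm emission and signal to noise measuring lysate protein binding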
- measurement context: COS7 hTOR1A mutant lysate, 635 nm fluorescence, higher = more signal
Lab note: anything with composite z-score at or over 0.7 counts as Fulfilled; the rest go in Not fulfilled.

Study these solved cases before continuing.
O=C(c1ccccc1)N1Cc2ccccc2C[C@@]2(N=C(c3ccc(OCCCO)cc3)O[C@H]2c2ccccc2)C1=O : Fulfilled
CCCCCN1CC=CC23O[C@@H]4/C=C\CCCOC(=O)C4[C@H]2C(=O)N(CCCCCO)[C@@H]3C1=O (stereo partly specified) : Not fulfilled

Exercise: Check the entry COC(=O)C1(CC(C)C)C=C2C(=C(C)C(=O)C2C)CN1 (stereo unspecified) : does composite z-score equal or exceed 0.7?
Key: Not fulfilled

Exercise: State whether the measured composite z-score reaches 0.7, counting equality as reaching it, for CC(C)C[C@@H]1NC(=O)[C@@H]2C[C@H](C(=O)NCCCCCCNC(=O)CS)[C@H](c3ccc(O)cc3)N2C1=O
Key: Fulfilled

Exercise: Check if composite z-score >= 0.7 (inclusive). Item: C=C(COC)/C(=C/C[C@@H](OC(=O)c1ccncc1)c1ccccc1OCCO)c1cnc2ccccc2c1
Key: Fulfilled

* * *

- Test system: Human papillomavirus type 1a protein E7 (residues 44-93)
- method notes: HPV1a E7 fragment binders on microarrays, primary screen, biochemical, small-molecule microarray, residues 44-93, 635 nm fluorescence (AID 1108);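 also: E7 fragment applied at 1 µg/mL in TBST for 1 h at 4 C; score combines spot fluorescence with its signal to noise ratio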
- measurement context: small-molecule microarray binding, fluorescence 635 nm; higher = more signal
Would you please tag the item 1 (yes) when its composite z-score is 0.8 or above, and 0 (no) when it is below?

COc1ccc(CCNC(=O)[C@@H]2c3ccccc3C(=O)N(Cc3cc(F)cc(C(F)(F)F)c3)[C@H]2c2ccc(CO)cc2)cc1 : 0 (no)

We next turn to a different compound, shown below.
Exercise: Could you tell me if the measured composite z-score of [N-]=[N+]=NCc1ccccc1[C@H]1OC(c2ccc(OCCCO)cc2)=N[C@@]1(Cc1ccccc1N=[N+]=[N-])C(=O)N1CCOCC1 reaches 0.8 or more?
Key: 1 (yes)

* * *

- method notes: modulators of HCV replicon luciferase signal, primary screen, HCV replication inhibitor project, Huh7 cells, luciferase reporter (AID 1109);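 also: huh7 hepatoma cells harbouring a luciferase neomycin HCV replicon reporter; luciferase luminescence as measure of HCV replicon replication; test concentration not given here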
- measurement context: 48 h, higher = more signal
quantity measured: z-score
No unit in the answer, please; the number alone is enough.

CCOC(=O)C[C@H]1[C@H](OC(=O)c2ccccc2-c2ccccc2)[C@@H](NC(=O)CC(C)C)c2cc(OCCCO)ccc2N1C(=O)c1ccccc1 : -0.783

# ---- query compound ----
Form field z-score, entry COc1ccc(C#Cc2ccc3c(c2)[C@]2(C(=O)N3)[C@H](c3ccccc3OCCO)N3[C@H](c4ccccc4)[C@H](c4ccccc4)OC(=O)[C@H]3[C@@H]2C(=O)NC[C@H](O)c2ccccc2)cc1 : -2.93

* * *

- tested system: Focal adhesion kinase 1 (Homo sapiens)
- method notes: small-molecule microarray binders of FAK, primary screen, biochemical, 635/667 nm fluorescence, BSA, DTT (AID 1130);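 also: composite of spot emission at 667 nm and signal to noise over triplicate slides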
- measurement context: PTK2 binding, 635 nm fluorescence, higher = more signal
Output rule met for composite z-score not less than 0.9; output rule not met otherwise.

# count of solved cases: 6
COc1c(C)cc(-c2nc(-c3ccccc3)c3c(c2C)CO[Si]3(C(C)C)C(C)C)cc1C : rule not met
CC(=O)NCCCC[C@@H]1NC(=O)[C@H]2C[C@@H](C(=O)NCCCCCN)[C@@H](c3ccc(O)cc3)N2C1=O : rule met
O=C1C2C=CC(C(O)C(c3ccccc3)c3ccccc3)N(Nc3ccccc3F)C2C(=O)N1c1ccccc1 (centres undefined) : rule not met
CCCCCN1CC=CC23O[C@@H]4/C=C\CCCOC(=O)C4[C@H]2C(=O)N(CCCCCO)[C@@H]3C1=O (some centres undefined) : rule not met
COCCOC(=O)N1C(=O)[C@@]2(c3cc(C#CCNC(N)=O)ccc31)[C@H](c1ccccc1OCCO)N1[C@H](c3ccccc3)[C@H](c3ccccc3)OC(=O)[C@H]1[C@@H]2C(=O)N1CCCCCCC1 : rule not met
CN1C(=O)C2C=CC(C(O)c3ccc(I)cc3)N(N(c3ccccc3)c3ccccc3)C2C1=O (centres undefined) : rule not met

Exercise: Could you tell me if the measured composite z-score of COC(=O)C(CC#Cc1ccc2c(c1)[C@]1(C(=O)N2)[C@H](C(=O)N2CCCCCCC2)[C@H]2C(=O)O[C@H](c3ccccc3)[C@H](c3ccccc3)N2[C@@H]1c1ccc(OCCO)cc1)C(=O)OC reaches 0.9 or more?
Key: rule met

Exercise: Reported composite z-score at or above 0.9? [N-]=[N+]=Nc1ccccc1C[C@@]1(C(=O)NCC(O)CO)N=C(c2ccc(OCCCO)cc2)O[C@@H]1c1ccccc1N=[N+]=[N-] (some centres undefined)
Key: rule met

Exercise: Hi, just wondering whether COC(=O)[C@@]1(Cc2ccc(F)cc2)[C@H]2c3cc(C(=O)N(C)C)n(Cc4ccc(C(F)(F)F)nc4)c3C[C@H]2CN1C(=O)c1ccccc1 shows composite z-score of 0.9 or higher.
Key: rule met

Exercise: Decide: is the reported value of composite z-score for CCCCCCc1nc(Cc2cc(OC)c(OC)c(OC)c2)c(C)c2c1[Si](C(C)C)(C(C)C)OC2 equal to or greater than 0.9?
Key: rule not met

Exercise: Is composite z-score for COC(=O)[C@@]1(Cc2ccc(F)cc2)[C@H]2c3cc(C(=O)N4CCCC4)n(C[C@H](O)CO)c3C[C@H]2CN1C(=O)c1ccccc1 at or above 0.9?
Key: rule not met

Exercise: Can Cc1ccc(S(=O)(=O)N2[C@@H](c3ccccc3)C(C(=O)O)=C[C@H]2C(C)(C)C)cc1 be said to have composite z-score at or above 0.9?
Key: rule met

Exercise: Can CO[C@H]1O[C@H](CO)[C@@H](OC(=O)Nc2cccc(F)c2)[C@H](OC(=O)c2cc3ccccc3[nH]2)[C@H]1OC(=O)c1cc2ccccc2[nH]1 be said to have composite z-score at or above 0.9?
Key: rule not met

Exercise: // inclusive: composite z-score at least 0.9? input: COCCCNC(=O)[C@]1(Cc2ccccc2N=[N+]=[N-])N=C(c2ccc(OCCCO)cc2)O[C@@H]1c1ccccc1
Key: rule met

Source: PubChem BioAssay
